# Test system: MCF7 breast
# Method notes: NCI tumour cell line growth inhibition, 48 h; in the data active = GI50 below about 0.43 µM; inactive = the rest
Please answer using one outcome listed in active, inactive

Q) Identify the outcome logged in this assay for the compound shown: O=C(Nc1n[nH]c2nnc(-c3cccnc3)cc12)C1CC1
A) inactive

Q) Give the logged outcome of this assay for the following compound: C[C@@H](Oc1ccc(C(=O)NS(=O)(=O)C(C)(C)C)cc1C(F)(F)F)c1ccc(Oc2ccccc2)cn1
A) inactive

Q) // return assay outcome for CN1C/C=C/CCOc2cccc(c2)-c2ccnc(n2)Nc2cccc(c2)C1
A) active

Q) In this assay, the call recorded for COc1cc(-c2cc(-c3cc(OC)c(OC)c(OC)c3)nc3nc(N)[nH]c(=O)c23)ccc1Oc1ccnc2cc(Cl)ccc12 was what?
A) inactive

Q) Recorded test outcome, item CC(=O)OC1CC2C3CCC4C[C@@H](NC(=O)C=C(C)C)CC[C@]4(C)C3CC[C@]2(C)[C@H]1C(C)N(C)C (some centres not stated)
A) inactive

Q) Dear colleague, could you share the recorded outcome for O=C1OCC2=C1C(c1ccc(Cl)c(Cl)c1)c1cc3c(cc1N2CCO)CCC3 (configuration not stated) when you have a moment?
A) active

Q) Which result was noted for this compound in the test: O=C(Nc1ccccc1)c1cc(S(=O)(=O)Nc2nc3ccccc3o2)c(SCc2ccccc2)cc1Cl
A) inactive

Q) Hi team, can someone confirm the assay call for CC1(C)[C@@H](OC(=O)CCC(=O)O)CC[C@]2(C)[C@H]3C(=O)C=C4[C@@H]5C[C@@](C)(C(=O)O)CC[C@]5(C)CC[C@@]4(C)[C@]3(C)CC[C@@H]12 ?
A) inactive

Q) How did this test come out for COc1ccc(C2=NN(C(=O)c3cc(OC)c(OC)c(OC)c3)C(c3ccc(N(C)C)cc3)C2)cc1 (configuration not stated) ?
A) active

Q) Name the outcome recorded for NC(N)=N/N=C/c1ccc(-c2ccc(-c3cc(Cl)cc(Cl)c3)s2)cc1 in the assay.
A) inactive

Q) Could you please tell me the result logged for CC(=O)N1N=C2/C(=C/c3ccc(Cl)cc3)CC(C)CC2C1c1ccc(Cl)cc1 (configuration not stated) in this assay?
A) inactive

Q) Could you kindly confirm the outcome this assay logged for COc1cc(/C=C2\C[C@H]3[C@@H]4CC=C5C[C@@H](O)CC[C@]5(C)[C@H]4CC[C@]3(C)[C@H]2O)ccc1OCCCn1ccnc1 ?
A) inactive

---

# Tested on: LOX IMVI melanoma
# Method notes: NCI tumour cell line growth inhibition, 48 h
Measured parameter: TGI (µM)
Give just the numeric value; µM need not be written.

Q) Dear colleague, I am looking for the recorded TGI of the following molecule: CC(C)Cc1cc2c(cc1O)CCC1C2CC[C@@]2(C)C1CC[C@@H]2O (stereo not given in full)
A) 18.2

Q) May I ask what TGI has been recorded for O=Cc1ccc(CCl)cc1 ?
A) 28

Q) Value lookup for TGI; key = O=c1oc2ccc(Br)cc2c(=O)n1-c1ccc(I)cc1F
A) 2.94

---

# System: SF-295 CNS
# Method notes: NCI tumour cell line growth inhibition, 48 h
Measured parameter: TGI

Q) Give its TGI value. Item: Cc1ccc2c(c1)S(=O)(=O)c1ccc3ccccc3c1N2
A) > 100 µM

Q) Item under review: Cc1ccc2nc(C=Nc3ccc(Cl)cc3)cc(C)c2c1 . Reported TGI?
A) 19.3 µM

Q) May I ask what TGI has been recorded for O=C(Nc1ccccc1)c1cc(S(=O)(=O)Nc2nc3ccccc3o2)c(SCc2ccccc2)cc1Cl ?
A) 33 µM

Q) Please report the recorded TGI for COc1cc([N+](=O)[O-])c(OC)cc1-c1nc2sc(Cl)cn2c1/C=N/NC1=NCCN1 .
A) 52.8 µM

Q) Item NCC1OC(OC2C(CO)OC(OC3C(O)C(N)CC(N)C3OC3OC(CO)C(O)CC3N)C2O)C(N)C(O)C1OC1OC(CO)C(O)C(O)C1O (stereo not drawn) has what recorded TGI?
A) > 50 µg/mL

Q) If you can, please state the reported TGI value of Ic1cc2c(cc1C1SCCCS1)OCO2 .
A) > 100 µM

Q) Please look up its TGI: COc1cc(C2C(Cl)C(=O)N2NC(=O)c2ccc(N)cc2)cc(Br)c1O (stereo not drawn)
A) 27.7 µM

Q) Record request: TGI value, item CCOC1Oc2ccccc2-c2nc(SC)ncc21 (stereo not drawn)
A) > 100 µM

Q) Consider the compound Cc1c2ccncc2c(C)c2c1[nH]c1ccc(OCC(F)(F)F)cc12 and give its measured TGI.
A) 3.01 µM

Q) Need TGI, item C=C(C(=C)P(=S)(c1ccccc1)c1ccccc1)P(=S)(c1ccccc1)c1ccccc1
A) > 100 µM

Q) Look at this compound and give its reported TGI. CC(=O)NC1C(OCc2ccccc2)OC(COC(=O)CCCCCCCCCCNc2ccc([N+](=O)[O-])c3[nH]c4ccccc4c(=O)c23)C(O)C1OC(C)C(=O)NC(C)C(=O)NC(CCC(N)=O)C(=O)OCc1ccccc1 (stereo not drawn)
A) > 100 µM

Q) Could you tell me which TGI is on file for CSC12c3cc(C)n(-c4ccccc4)c3CC(C)(C)CN1C(=O)C2Oc1ccccc1 (stereo not drawn) ?
A) > 100 µM

Q) Given the entry COc1cc([C@@H]2c3cc4c(cc3[C@@H](Nc3ccc(C(=O)N[C@H]5CCc6cc(OC)c(OC)c(OC)c6-c6ccc(SC)c(=O)cc65)cc3)[C@H]3COC(=O)[C@H]23)OCO4)cc(OC)c1O , report its measured TGI.
A) > 100 µM
